- EXPERIMENT SUMMARY: in vivo
- CONDITIONS: rat, in vivo, po, LD50, p.o., table 4
ENDPOINT: LD50 (mg/kg)
Dear colleague, please return just the value in mg/kg, with no unit written.

COMPOUND: CC(=O)Oc1ccccc1C(=O)O [Aspyrine]
LD50 (mg/kg): 1200

### Prompt Which measured LD50 value corresponds to COc1ccc2c(c1)c(CC(=O)O)c(C)n2C(=O)c1ccc(Cl)cc1 [Indomethacin, indomethacin] ?
### Response 17

====

- EXPERIMENT SUMMARY: rat paw carrageenan oedema test (anti-inflammatory activity)
- Type: in vivo
- CONDITIONS: rat, in vivo, po, 2 hours; read-out: Therapeutic index LD50/ED50
- Excerpt: The anti-inflammatory activity of the polysaccharide concentrates produced according to the invention was investigated on the rat paw carrageenan oedema test according to Winter et al. [Proc. Soc. Exp. Biol. Med. 111. 544. (1962)]. The concentrate has a significant specific activity and in connection with its advantageous anti-inflammatory activity it posseses a remarkably low toxicity.
ENDPOINT: selectivity ratio
API doc: respond with a numeric literal and nothing else, no unit.

### Prompt Which measured selectivity ratio value corresponds to COc1ccc2c(c1)c(CC(=O)O)c(C)n2C(=O)c1ccc(Cl)cc1 ?
### Response 10.2
